In this section we review reported hERG IC20/TLR7 IC50 values for a set of molecules.
biological target: hERG channel (Homo sapiens); construct: expressed in transfected cells; host or cells: CHO (Chinese hamster ovary), CHOhERG; assay: hERG channel inhibition assay (patch-clamp, CHOhERG cells); format: cell-based; settings: safety ratio
Sequence (Q12809 whole entry): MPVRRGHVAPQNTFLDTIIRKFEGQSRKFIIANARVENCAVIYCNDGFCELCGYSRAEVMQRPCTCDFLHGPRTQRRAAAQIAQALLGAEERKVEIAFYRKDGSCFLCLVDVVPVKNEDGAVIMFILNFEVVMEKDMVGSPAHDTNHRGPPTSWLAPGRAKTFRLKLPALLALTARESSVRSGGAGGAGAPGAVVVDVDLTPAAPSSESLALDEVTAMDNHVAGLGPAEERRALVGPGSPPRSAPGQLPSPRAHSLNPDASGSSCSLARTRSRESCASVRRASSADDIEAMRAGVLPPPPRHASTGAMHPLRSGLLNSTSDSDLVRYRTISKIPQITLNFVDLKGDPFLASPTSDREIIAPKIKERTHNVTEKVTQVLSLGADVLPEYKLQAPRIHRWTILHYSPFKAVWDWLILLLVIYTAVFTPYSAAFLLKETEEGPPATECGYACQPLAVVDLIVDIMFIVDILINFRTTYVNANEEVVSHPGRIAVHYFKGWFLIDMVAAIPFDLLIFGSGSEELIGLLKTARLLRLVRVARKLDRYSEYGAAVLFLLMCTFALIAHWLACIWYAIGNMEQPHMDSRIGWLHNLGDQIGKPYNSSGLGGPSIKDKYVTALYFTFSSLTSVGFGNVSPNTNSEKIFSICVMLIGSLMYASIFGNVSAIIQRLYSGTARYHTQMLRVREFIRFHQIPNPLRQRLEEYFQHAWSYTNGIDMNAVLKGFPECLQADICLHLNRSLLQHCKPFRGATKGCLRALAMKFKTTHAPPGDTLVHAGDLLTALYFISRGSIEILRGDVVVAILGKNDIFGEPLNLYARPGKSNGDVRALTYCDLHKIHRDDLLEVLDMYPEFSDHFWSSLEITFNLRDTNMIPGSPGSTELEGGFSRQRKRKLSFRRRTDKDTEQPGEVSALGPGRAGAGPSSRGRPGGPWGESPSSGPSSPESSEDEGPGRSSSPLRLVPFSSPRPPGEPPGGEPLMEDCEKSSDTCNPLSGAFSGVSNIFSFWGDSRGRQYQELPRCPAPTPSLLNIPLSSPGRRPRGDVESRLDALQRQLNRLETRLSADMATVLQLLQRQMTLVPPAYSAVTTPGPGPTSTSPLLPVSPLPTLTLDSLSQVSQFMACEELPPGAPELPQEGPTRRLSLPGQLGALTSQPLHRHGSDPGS

Please report the recorded hERG IC20/TLR7 IC50 for `[2H]c1ccc2c(N3C[C@@H]4CN(Cc5ccc(N6C[C@H]7NCCO[C@@H]7C6)nc5C)CCN4[C@H](C)C3)ccc(C#N)c2n1` .
>416

// repeat for `C[C@@H]1CN(c2ccc(C#N)c3ncccc23)C[C@@H]2CN(Cc3ccc(N4CCNCC4)nc3)CCN21` and report
392

Next record, please: `Cc1cc(N2CCNCC2)cnc1N1CCN2[C@@H](C1)CN(c1cc(=O)n(C)c3ncccc13)C[C@H]2C`
>1000

Now give it for `CO[C@@H]1CN(c2ccc(CCN3CCN4[C@@H](C3)CN(c3ccc(C#N)c5ncccc35)C[C@H]4C)cn2)C[C@H]1N` too.
>833

Queued: `Cc1cc(N2CCN3[C@@H](C2)CN(c2ccc(C#N)c4ncccc24)C[C@H]3C)nc(N2CC(C)(N)C2)n1`
>680

// same read-out, input: `C[C@@H]1CN(c2ccc(C#N)c3ncccc23)C[C@@H]2CN(c3nccc(N4CC(N)C4)n3)CCN21`
238
